test: in vivo; design: species or system cynomolgus monkeys; details: cynomolgus, cynomolgus monkey, sc, 1 mg/kg
experimental_endpoint: AUC(0-inf) (ng·h/mL)
Report the figure in ng·h/mL without appending any unit label.

Q: Fill in the blank: the reported AUC(0-inf) of CCCN(CCC)C(=O)C1=Cc2ccc(-c3ccc(C(=O)N4CCCC4)cc3)cc2N=C(N)C1 [Motolimod, motolimod] is ____.
A: 270

* * *

experimental_endpoint: IC50

Q: Missing value: IC50, CYP 1A2 (Homo sapiens), entry CCCN(CCC)C(=O)C1=Cc2ccc(-c3ccc(C(=O)N4CCCC4)cc3)cc2N=C(N)C1 [Motolimod, motolimod] . Fill in?
A: > 10 µM

* * *

test system: human peripheral blood mononuclear cells (PBMCs); assay: Ex vivo human PBMC cytokine induction assay; type: cell-based; conditions: 24 h, Donor 2, 24 h, read-out: EC50 G-CSF induction
experimental_endpoint: EC50 (µM)
All answers are understood in µM, so give the number only.

Q: # EC50 lookup, item CCCN(CCC)C(=O)C1=Cc2ccc(-c3ccc(C(=O)N4CCCC4)cc3)cc2N=C(N)C1 [Motolimod, motolimod]
A: 0.461

* * *

assay: in vivo; set-up: species or system cynomolgus monkeys; details: cynomolgus, cynomolgus monkey, sc, 1 mg/kg
experimental_endpoint: MRT inf (h)
Number in h, nothing else.

Q: // returns reported MRT inf for input CCCN(CCC)C(=O)C1=Cc2ccc(-c3ccc(C(=O)N4CCCC4)cc3)cc2N=C(N)C1 [Motolimod, motolimod]
A: 2.95

* * *

test: in vivo; parameters: species or system cynomolgus monkeys; settings: cynomolgus, cynomolgus monkey, sc, 1 mg/kg
experimental_endpoint: AUC(0-t) (ng·h/mL)
Response body: numeric value in ng·h/mL, unit text excluded.

Q: So what's the measured AUC(0-t) for this one? CCCN(CCC)C(=O)C1=Cc2ccc(-c3ccc(C(=O)N4CCCC4)cc3)cc2N=C(N)C1 [Motolimod, motolimod]
A: 270

* * *

experimental_endpoint: IC50

Q: Give IC50 (UniProtKB P08684) of the following compound: "CCCN(CCC)C(=O)C1=Cc2ccc(-c3ccc(C(=O)N4CCCC4)cc3)cc2N=C(N)C1"
Sequence (P08684 whole entry): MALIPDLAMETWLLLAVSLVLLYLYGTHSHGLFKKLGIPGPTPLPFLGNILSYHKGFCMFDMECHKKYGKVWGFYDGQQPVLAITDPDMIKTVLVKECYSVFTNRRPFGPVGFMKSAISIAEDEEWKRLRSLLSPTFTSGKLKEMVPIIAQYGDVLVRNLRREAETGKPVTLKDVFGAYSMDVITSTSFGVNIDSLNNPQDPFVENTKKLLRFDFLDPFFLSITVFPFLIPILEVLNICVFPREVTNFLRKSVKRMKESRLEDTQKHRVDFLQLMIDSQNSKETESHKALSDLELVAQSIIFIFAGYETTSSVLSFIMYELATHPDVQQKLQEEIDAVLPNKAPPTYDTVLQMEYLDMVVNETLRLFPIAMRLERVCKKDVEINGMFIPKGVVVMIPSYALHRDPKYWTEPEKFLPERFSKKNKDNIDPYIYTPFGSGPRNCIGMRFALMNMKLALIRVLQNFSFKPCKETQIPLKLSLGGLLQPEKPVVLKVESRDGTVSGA
A: > 10 µM

* * *

system: human peripheral blood mononuclear cells (PBMCs); experiment: Ex vivo human PBMC cytokine induction assay; assay type: cell-based; conditions: 24 h, Donor 1, 24 h, read-out: EC50 MIP-1α induction
experimental_endpoint: pEC50
Scale: negative log10 of molar concentration, which is what pEC50 denotes.

Q: Return reported pEC50; argument: "CCCN(CCC)C(=O)C1=Cc2ccc(-c3ccc(C(=O)N4CCCC4)cc3)cc2N=C(N)C1"
A: 6.56

* * *

system: human peripheral blood mononuclear cells (PBMCs); experiment: Ex vivo human PBMC cytokine induction assay; type: cell-based; settings: 24 h, Donor 1, 24 h, read-out: EC50 MIP-1β induction
experimental_endpoint: pEC50
Units for pEC50: none; it is -log10 of a concentration expressed in mol/L.

Q: Lab note: need pEC50 for "CCCN(CCC)C(=O)C1=Cc2ccc(-c3ccc(C(=O)N4CCCC4)cc3)cc2N=C(N)C1" on human peripheral blood mononuclear cells (PBMCs), anyone have it?
A: 6.56

* * *

target: hTLR7 (Homo sapiens, UniProt Q9NYK1); test: HEK-Blue hTLR7 SEAP reporter agonist assay; conditions: HEK-Blue hTLR7 cells, highest concentration 50 μM
Sequence (Q9NYK1 27-1049): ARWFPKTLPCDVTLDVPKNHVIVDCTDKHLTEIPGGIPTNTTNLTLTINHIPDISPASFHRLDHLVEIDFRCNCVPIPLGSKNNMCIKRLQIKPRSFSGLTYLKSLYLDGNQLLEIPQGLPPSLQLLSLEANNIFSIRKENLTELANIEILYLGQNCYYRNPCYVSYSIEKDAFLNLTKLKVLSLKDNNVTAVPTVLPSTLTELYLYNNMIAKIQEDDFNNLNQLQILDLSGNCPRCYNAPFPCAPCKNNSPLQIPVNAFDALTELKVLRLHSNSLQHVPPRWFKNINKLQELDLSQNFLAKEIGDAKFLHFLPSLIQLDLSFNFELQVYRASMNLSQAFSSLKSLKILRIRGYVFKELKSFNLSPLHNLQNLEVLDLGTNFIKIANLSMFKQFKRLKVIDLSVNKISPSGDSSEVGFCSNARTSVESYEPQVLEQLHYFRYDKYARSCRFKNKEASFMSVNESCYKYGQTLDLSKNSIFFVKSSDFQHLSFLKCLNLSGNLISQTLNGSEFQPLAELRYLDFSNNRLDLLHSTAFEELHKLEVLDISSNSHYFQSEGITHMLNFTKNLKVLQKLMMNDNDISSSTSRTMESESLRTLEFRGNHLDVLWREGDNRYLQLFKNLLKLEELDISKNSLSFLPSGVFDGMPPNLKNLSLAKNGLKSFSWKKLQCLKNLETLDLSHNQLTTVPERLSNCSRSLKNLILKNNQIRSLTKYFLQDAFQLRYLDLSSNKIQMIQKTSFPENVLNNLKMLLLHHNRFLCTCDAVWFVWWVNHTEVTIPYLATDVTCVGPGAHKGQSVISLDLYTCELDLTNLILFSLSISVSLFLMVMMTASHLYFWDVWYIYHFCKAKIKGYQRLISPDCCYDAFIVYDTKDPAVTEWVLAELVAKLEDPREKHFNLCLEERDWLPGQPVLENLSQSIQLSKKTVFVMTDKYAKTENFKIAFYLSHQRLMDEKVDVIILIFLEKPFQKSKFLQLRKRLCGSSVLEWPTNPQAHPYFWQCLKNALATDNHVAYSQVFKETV
experimental_endpoint: EC50 (µM)
Numbers only; they are read as µM.

Q: Notebook: pull reported EC50 for hTLR7 (Homo sapiens, UniProt Q9NYK1), entry "CCCN(CCC)C(=O)C1=Cc2ccc(-c3ccc(C(=O)N4CCCC4)cc3)cc2N=C(N)C1"
A: 19.8

* * *

experimental_endpoint: IC50

Q: Give the reported IC50 for CCCN(CCC)C(=O)C1=Cc2ccc(-c3ccc(C(=O)N4CCCC4)cc3)cc2N=C(N)C1 [Motolimod, motolimod] (system: CYP 2D6 (Homo sapiens, UniProt P10635)).
Sequence (P10635 whole entry): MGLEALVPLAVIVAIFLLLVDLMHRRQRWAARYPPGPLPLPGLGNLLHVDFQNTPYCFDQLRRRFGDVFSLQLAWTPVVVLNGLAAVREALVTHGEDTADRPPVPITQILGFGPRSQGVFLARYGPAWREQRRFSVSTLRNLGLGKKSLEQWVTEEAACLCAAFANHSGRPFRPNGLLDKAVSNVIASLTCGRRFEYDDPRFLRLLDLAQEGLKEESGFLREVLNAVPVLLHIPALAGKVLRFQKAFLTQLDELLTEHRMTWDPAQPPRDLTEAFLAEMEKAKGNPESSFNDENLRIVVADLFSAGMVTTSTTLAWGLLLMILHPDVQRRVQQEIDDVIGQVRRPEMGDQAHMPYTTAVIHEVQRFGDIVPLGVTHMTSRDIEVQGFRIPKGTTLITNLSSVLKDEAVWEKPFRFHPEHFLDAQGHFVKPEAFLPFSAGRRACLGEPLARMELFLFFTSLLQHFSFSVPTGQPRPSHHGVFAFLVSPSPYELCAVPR
A: > 10 µM

* * *

test system: human peripheral blood mononuclear cells (PBMCs); assay: Ex vivo human PBMC cytokine induction assay; assay type: cell-based; conditions: 24 h, Donor 2, 24 h, read-out: EC50 MIP-1α induction
experimental_endpoint: EC50 (nM)
Respond with the bare value in nM.

Q: Quick check: EC50 of "CCCN(CCC)C(=O)C1=Cc2ccc(-c3ccc(C(=O)N4CCCC4)cc3)cc2N=C(N)C1" ?
A: 208

* * *

test system: human peripheral blood mononuclear cells (PBMCs); assay: Ex vivo human PBMC cytokine induction assay; format: cell-based; conditions: 24 h, Donor 2, 24 h, read-out: EC50 TNF-α induction
experimental_endpoint: pEC50
Bear in mind: pEC50 is minus log10 of a mol/L concentration; give just that figure.

Q: For CCCN(CCC)C(=O)C1=Cc2ccc(-c3ccc(C(=O)N4CCCC4)cc3)cc2N=C(N)C1 [Motolimod, motolimod] , what is its reported pEC50?
A: 6.50

* * *

assay: in vivo; parameters: species or system Sprague Dawley rats; conditions: Sprague Dawley, rat, sc, 10 mg/kg
experimental_endpoint: Tmax (h)
Number in h, nothing else.

Q: Which measured Tmax value corresponds to CCCN(CCC)C(=O)C1=Cc2ccc(-c3ccc(C(=O)N4CCCC4)cc3)cc2N=C(N)C1 [Motolimod, motolimod] ?
A: 1.17

* * *

tested on: hERG potassium channel; construct: purchased Eurofins Cerep44 panel; assay: Eurofins Cerep44 off-target panel; settings: human; 10 μM compound; >50% considered significant; read-out: effect on potassium channel hERG in Cerep screen (% inhibition of binding)
experimental_endpoint: inhibition at 10 µM (%)
Report as a plain number; the unit % is understood.

Q: Look up inhibition at 10 µM for this compound: CCCN(CCC)C(=O)C1=Cc2ccc(-c3ccc(C(=O)N4CCCC4)cc3)cc2N=C(N)C1 [Motolimod, motolimod]
A: 59.2

* * *

assay: in vivo; design: species or system Sprague Dawley rats; conditions: Sprague Dawley, rat, iv, 2.5 mg/kg
experimental_endpoint: clearance (mL/min/kg)
Return type: number; implicit unit mL/min/kg.

Q: State the recorded clearance for this entry: "CCCN(CCC)C(=O)C1=Cc2ccc(-c3ccc(C(=O)N4CCCC4)cc3)cc2N=C(N)C1"
A: 45.5
